Source of measurements: the supplement of paper PMC9112550

system: Escherichia coli TOP10; assay: shrunken log2 fold change of peptide-encoding DNA abundance (4.5 h post-induction vs induction); higher = less antimicrobial activity (less host growth inhibition); conditions: time post-induction: 4.5 h; library: site-saturation at positions 5, 18, 19, 20
Note to self: values exactly at 0.04 are T. So shrunken log2 fold change at or above 0.04 is T, below is F.

> print(dat)
            sequence.record  qualitative.label
 1  RRIRTRPPRLPRPRPRPSPIPRP                  F
 2  RRIRKRPPRLPRPRPRPIQGPRP                  F
 3  RRIRYRPPRLPRPRPRPLPYPRP                  F
 4  RRIRFRPPRLPRPRPRPARTPRP                  T
 5  RRIRTRPPRLPRPRPRPQKVPRP                  F
 6  RRIRHRPPRLPRPRPRPTGRPRP                  F
 7  RRIRCRPPRLPRPRPRPFDPPRP                  F
 8  RRIRRRPPRLPRPRPRPMTGPRP                  T
 9  RRIRLRPPRLPRPRPRPVVVPRP                  T
10  RRIRYRPPRLPRPRPRPCKIPRP                  F
11  RRIRCRPPRLPRPRPRPLCKPRP                  F
12  RRIRYRPPRLPRPRPRPDTTPRP                  T
13  RRIRRRPPRLPRPRPRPWSDPRP                  F
14  RRIRNRPPRLPRPRPRPRWLPRP                  T
15  RRIRNRPPRLPRPRPRPEPIPRP                  T
16  RRIRPRPPRLPRPRPRPLKVPRP                  F
17  RRIRRRPPRLPRPRPRPGQIPRP                  T
18  RRIRMRPPRLPRPRPRPHTQPRP                  T
19  RRIRERPPRLPRPRPRPHKCPRP                  T
20  RRIRSRPPRLPRPRPRPQGCPRP                  F
21  RRIRKRPPRLPRPRPRPVGGPRP                  T
22  RRIRPRPPRLPRPRPRPSTGPRP                  F
23  RRIRGRPPRLPRPRPRPPMQPRP                  T
24  RRIRNRPPRLPRPRPRPFMYPRP                  F
25  RRIRARPPRLPRPRPRPAREPRP                  T
26  RRIRLRPPRLPRPRPRPHFRPRP                  F
27  RRIRKRPPRLPRPRPRPYIAPRP                  F
28  RRIRWRPPRLPRPRPRPTFPPRP                  T
29  RRIRCRPPRLPRPRPRPLHPPRP                  T
30  RRIRGRPPRLPRPRPRPWVSPRP                  F
31  RRIRLRPPRLPRPRPRPTPEPRP                  T
32  RRIRERPPRLPRPRPRPISLPRP                  F
33  RRIRWRPPRLPRPRPRPVRHPRP                  T
34  RRIRARPPRLPRPRPRPEAQPRP                  T
35  RRIRERPPRLPRPRPRPHFKPRP                  F
36  RRIRFRPPRLPRPRPRPEREPRP                  T
37  RRIRNRPPRLPRPRPRPDNYPRP                  F
38  RRIRNRPPRLPRPRPRPHRLPRP                  F
39  RRIRLRPPRLPRPRPRPNLMPRP                  F
40  RRIRLRPPRLPRPRPRPATMPRP                  F
41  RRIRGRPPRLPRPRPRPNWEPRP                  T
42  RRIRARPPRLPRPRPRPNYVPRP                  F
43  RRIRFRPPRLPRPRPRPDRFPRP                  T
44  RRIRVRPPRLPRPRPRPDCSPRP                  F
45  RRIRGRPPRLPRPRPRPGKPPRP                  T
46  RRIRGRPPRLPRPRPRPAKEPRP                  T
47  RRIRDRPPRLPRPRPRPQNKPRP                  F
48  RRIRSRPPRLPRPRPRPMPEPRP                  T
49  RRIRWRPPRLPRPRPRPPFDPRP                  T
50  RRIRWRPPRLPRPRPRPERSPRP                  T
51  RRIRVRPPRLPRPRPRPWSVPRP                  F
52  RRIRFRPPRLPRPRPRPDSAPRP                  F
53  RRIRWRPPRLPRPRPRPCAGPRP                  T
54  RRIRKRPPRLPRPRPRPKPHPRP                  T
55  RRIRIRPPRLPRPRPRPPVNPRP                  F
56  RRIRVRPPRLPRPRPRPSWLPRP                  T
57  RRIRYRPPRLPRPRPRPYKCPRP                  F
58  RRIRKRPPRLPRPRPRPMAPPRP                  T
59  RRIRCRPPRLPRPRPRPGNTPRP                  F
60  RRIRSRPPRLPRPRPRPVSLPRP                  F
61  RRIRIRPPRLPRPRPRPEMWPRP                  F
62  RRIRGRPPRLPRPRPRPCVPPRP                  T
63  RRIRLRPPRLPRPRPRPHEAPRP                  T

====

tested on: Escherichia coli TOP10; test: shrunken log2 fold change of peptide-encoding DNA abundance (4.5 h post-induction vs induction); higher = less antimicrobial activity (less host growth inhibition); conditions: time post-induction: 4.5 h; library: site-saturation at positions 5, 18, 19, 20;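 also: peptides expressed intracellularly from a pBAD plasmid library in pooled LB shake-flask culture, induced with 0.3% L-arabinose, DNA abundance read by NGS, three biological replicates, DESeq2 with apeglm shrinkage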
// reported shrunken log2 fold change for each item listed
attribute_measured: shrunken log2 fold change

> print(dat)
            sequence.record  test.result
 1  RRIRLRPPRLPRPRPRPCVSPRP       -0.108
 2  RRIRFRPPRLPRPRPRPGHNPRP       -0.409
 3  RRIRNRPPRLPRPRPRPQQHPRP       -0.111
 4  RRIRWRPPRLPRPRPRPYMTPRP       -0.877
 5  RRIRGRPPRLPRPRPRPYMAPRP       -0.388
 6  RRIRERPPRLPRPRPRPRNTPRP       -0.346
 7  RRIRPRPPRLPRPRPRPAKIPRP       0.0125
 8  RRIRIRPPRLPRPRPRPHVRPRP        0.031
 9  RRIRYRPPRLPRPRPRPATAPRP        0.132
10  RRIRRRPPRLPRPRPRPILFPRP       -0.026
11  RRIRVRPPRLPRPRPRPVGEPRP        0.305
12  RRIRVRPPRLPRPRPRPDFIPRP       -0.396
13  RRIRCRPPRLPRPRPRPTACPRP      -0.0786
14  RRIRWRPPRLPRPRPRPEQVPRP         0.21
15  RRIRWRPPRLPRPRPRPKAYPRP        -0.12
16  RRIRIRPPRLPRPRPRPNNNPRP       -0.982
17  RRIRKRPPRLPRPRPRPNDKPRP      -0.0282
18  RRIRPRPPRLPRPRPRPWMSPRP       -0.166
19  RRIRVRPPRLPRPRPRPHHIPRP       -0.386
20  RRIRDRPPRLPRPRPRPQCRPRP       0.0338
21  RRIRYRPPRLPRPRPRPVSPPRP       -0.449
22  RRIRIRPPRLPRPRPRPKMKPRP       -0.457
23  RRIRNRPPRLPRPRPRPGQIPRP       0.0192
24  RRIRPRPPRLPRPRPRPTFDPRP      -0.0186
25  RRIRQRPPRLPRPRPRPRLSPRP       0.0751
26  RRIRQRPPRLPRPRPRPNKFPRP       -0.896
27  RRIRLRPPRLPRPRPRPSFYPRP         -0.7
28  RRIRDRPPRLPRPRPRPKYFPRP      -0.0236
29  RRIRDRPPRLPRPRPRPALPPRP        0.328
30  RRIRRRPPRLPRPRPRPACCPRP        0.714
31  RRIRPRPPRLPRPRPRPWDEPRP       -0.151
32  RRIRMRPPRLPRPRPRPVDNPRP        0.113
33  RRIRNRPPRLPRPRPRPVNDPRP        -0.15
34  RRIRRRPPRLPRPRPRPGRIPRP       0.0214
35  RRIRWRPPRLPRPRPRPLQDPRP      -0.0523
36  RRIRKRPPRLPRPRPRPCNHPRP        -0.16
37  RRIRMRPPRLPRPRPRPHMLPRP       -0.245
38  RRIRHRPPRLPRPRPRPQEYPRP       -0.128
39  RRIRNRPPRLPRPRPRPGKLPRP      -0.0284
40  RRIRKRPPRLPRPRPRPFVNPRP       -0.122
41  RRIRQRPPRLPRPRPRPPLEPRP        0.949
42  RRIRFRPPRLPRPRPRPEHAPRP        0.243
43  RRIRTRPPRLPRPRPRPFFPPRP        0.191
44  RRIRGRPPRLPRPRPRPTFQPRP         0.59
45  RRIRTRPPRLPRPRPRPDPVPRP       -0.216
46  RRIRRRPPRLPRPRPRPQYDPRP       -0.224
47  RRIRIRPPRLPRPRPRPRWNPRP       -0.249
48  RRIRNRPPRLPRPRPRPDMMPRP       -0.233
49  RRIRRRPPRLPRPRPRPVAWPRP        0.341
50  RRIRVRPPRLPRPRPRPEAVPRP        0.112
51  RRIRRRPPRLPRPRPRPPWMPRP        0.269
52  RRIRERPPRLPRPRPRPTTSPRP       -0.147
53  RRIRYRPPRLPRPRPRPVGTPRP        0.238
54  RRIRCRPPRLPRPRPRPEHRPRP      -0.0739
55  RRIRLRPPRLPRPRPRPGGDPRP        0.152
56  RRIRRRPPRLPRPRPRPDKEPRP       0.0257
57  RRIRARPPRLPRPRPRPIIIPRP       -0.235
58  RRIRYRPPRLPRPRPRPIPWPRP       -0.545
59  RRIRDRPPRLPRPRPRPVDMPRP       0.0154
60  RRIRMRPPRLPRPRPRPPGFPRP        0.619
61  RRIRERPPRLPRPRPRPGTCPRP       0.0777
62  RRIRNRPPRLPRPRPRPYRLPRP     -0.00674
63  RRIRERPPRLPRPRPRPIFWPRP        0.167
